assay_context: in ethyl acetate, 288.15 K
measured_attribute: solubility (mole fraction)
Lab note: jot down the number only; don't add units.

In: Form field: reported solubility (mole fraction) of NC(=O)CC[C@H](N)C(=O)O
Out: 5.21e-05

###

assay_context: in n-pentanol, 293.15 K
measured_attribute: solubility (mole fraction)

In: Form field: reported solubility (mole fraction) of NC(=O)CC[C@H](N)C(=O)O
Out: 0.000137

###

assay_context: in isobutanol, 298.15 K
measured_attribute: solubility (mole fraction)
Lab note: jot down the number only; don't add units.

In: Form field: reported solubility (mole fraction) of NC(=O)CC[C@H](N)C(=O)O
Out: 0.000254

###

assay_context: in n-propanol, 303.15 K
measured_attribute: solubility (mole fraction)

In: Form field: reported solubility (mole fraction) of NC(=O)CC[C@H](N)C(=O)O
Out: 0.000227

###

assay_context: in isobutanol, 288.15 K
measured_attribute: solubility (mole fraction)
Lab note: jot down the number only; don't add units.

In: Form field: reported solubility (mole fraction) of NC(=O)CC[C@H](N)C(=O)O
Out: 0.000112

###

assay_context: in ethyl acetate, 308.15 K
measured_attribute: solubility (mole fraction)
Lab note: jot down the number only; don't add units.

In: Form field: reported solubility (mole fraction) of NC(=O)CC[C@H](N)C(=O)O
Out: 0.000362

###

assay_context: in n-pentanol, 283.15 K
measured_attribute: solubility (mole fraction)
Lab note: jot down the number only; don't add units.

In: Form field: reported solubility (mole fraction) of NC(=O)CC[C@H](N)C(=O)O
Out: 8.57e-05

###

assay_context: in isobutanol, 293.15 K
measured_attribute: solubility (mole fraction)

In: Form field: reported solubility (mole fraction) of NC(=O)CC[C@H](N)C(=O)O
Out: 0.000163

###

assay_context: in sec-butanol, 308.15 K
measured_attribute: solubility (mole fraction)
Lab note: jot down the number only; don't add units.

In: Form field: reported solubility (mole fraction) of NC(=O)CC[C@H](N)C(=O)O
Out: 0.000353

###

assay_context: in methanol, 313.15 K
measured_attribute: solubility (mole fraction)

In: Form field: reported solubility (mole fraction) of NC(=O)CC[C@H](N)C(=O)O
Out: 0.00025

###

assay_context: in n-butanol, 293.15 K
measured_attribute: solubility (mole fraction)
Lab note: jot down the number only; don't add units.

In: Form field: reported solubility (mole fraction) of NC(=O)CC[C@H](N)C(=O)O
Out: 0.000291

###

assay_context: in water, 293.15 K
measured_attribute: solubility (mole fraction)
Lab note: jot down the number only; don't add units.

In: Form field: reported solubility (mole fraction) of NC(=O)CC[C@H](N)C(=O)O
Out: 0.00471

###

assay_context: in isobutanol, 323.15 K
measured_attribute: solubility (mole fraction)
Lab note: jot down the number only; don't add units.

In: Form field: reported solubility (mole fraction) of NC(=O)CC[C@H](N)C(=O)O
Out: 0.000798

###

assay_context: in n-hexane, 303.15 K
measured_attribute: solubility (mole fraction)
Lab note: jot down the number only; don't add units.

In: Form field: reported solubility (mole fraction) of NC(=O)CC[C@H](N)C(=O)O
Out: 0.000425

###

assay_context: in ethyl acetate, 293.15 K
measured_attribute: solubility (mole fraction)
Lab note: jot down the number only; don't add units.

In: Form field: reported solubility (mole fraction) of NC(=O)CC[C@H](N)C(=O)O
Out: 0.000138

###

assay_context: in water, 308.15 K
measured_attribute: solubility (mole fraction)
Lab note: jot down the number only; don't add units.

In: Form field: reported solubility (mole fraction) of NC(=O)CC[C@H](N)C(=O)O
Out: 0.00682

###

assay_context: in sec-butanol, 288.15 K
measured_attribute: solubility (mole fraction)
Lab note: jot down the number only; don't add units.

In: Form field: reported solubility (mole fraction) of NC(=O)CC[C@H](N)C(=O)O
Out: 0.000106

###

assay_context: in n-propanol, 323.15 K
measured_attribute: solubility (mole fraction)
Lab note: jot down the number only; don't add units.

In: Form field: reported solubility (mole fraction) of NC(=O)CC[C@H](N)C(=O)O
Out: 0.000434

###

assay_context: in acetonitrile, 298.15 K
measured_attribute: solubility (mole fraction)

In: Form field: reported solubility (mole fraction) of NC(=O)CC[C@H](N)C(=O)O
Out: 0.000138

###

assay_context: in ethyl acetate, 323.15 K
measured_attribute: solubility (mole fraction)

In: Form field: reported solubility (mole fraction) of NC(=O)CC[C@H](N)C(=O)O
Out: 0.000653

###

assay_context: in methanol, 323.15 K
measured_attribute: solubility (mole fraction)
Lab note: jot down the number only; don't add units.

In: Form field: reported solubility (mole fraction) of NC(=O)CC[C@H](N)C(=O)O
Out: 0.000347

###

assay_context: in water, 283.15 K
measured_attribute: solubility (mole fraction)
Lab note: jot down the number only; don't add units.

In: Form field: reported solubility (mole fraction) of NC(=O)CC[C@H](N)C(=O)O
Out: 0.00356

###

assay_context: in n-pentanol, 313.15 K
measured_attribute: solubility (mole fraction)
Lab note: jot down the number only; don't add units.

In: Form field: reported solubility (mole fraction) of NC(=O)CC[C@H](N)C(=O)O
Out: 0.000448

###

assay_context: in n-pentanol, 318.15 K
measured_attribute: solubility (mole fraction)
Lab note: jot down the number only; don't add units.

In: Form field: reported solubility (mole fraction) of NC(=O)CC[C@H](N)C(=O)O
Out: 0.000556

###

assay_context: in ethanol, 298.15 K
measured_attribute: solubility (mole fraction)
Lab note: jot down the number only; don't add units.

In: Form field: reported solubility (mole fraction) of NC(=O)CC[C@H](N)C(=O)O
Out: 0.000372

###

assay_context: in water, 318.15 K
measured_attribute: solubility (mole fraction)
Lab note: jot down the number only; don't add units.

In: Form field: reported solubility (mole fraction) of NC(=O)CC[C@H](N)C(=O)O
Out: 0.0097

###

assay_context: in ethanol, 288.15 K
measured_attribute: solubility (mole fraction)
Lab note: jot down the number only; don't add units.

In: Form field: reported solubility (mole fraction) of NC(=O)CC[C@H](N)C(=O)O
Out: 0.000304

###

assay_context: in n-propanol, 318.15 K
measured_attribute: solubility (mole fraction)
Lab note: jot down the number only; don't add units.

In: Form field: reported solubility (mole fraction) of NC(=O)CC[C@H](N)C(=O)O
Out: 0.000375

###

assay_context: in ethyl acetate, 318.15 K
measured_attribute: solubility (mole fraction)

In: Form field: reported solubility (mole fraction) of NC(=O)CC[C@H](N)C(=O)O
Out: 0.00054

###

assay_context: in methanol, 293.15 K
measured_attribute: solubility (mole fraction)
Lab note: jot down the number only; don't add units.

In: Form field: reported solubility (mole fraction) of NC(=O)CC[C@H](N)C(=O)O
Out: 0.000114

###

assay_context: in ethanol, 308.15 K
measured_attribute: solubility (mole fraction)

In: Form field: reported solubility (mole fraction) of NC(=O)CC[C@H](N)C(=O)O
Out: 0.000447

###

assay_context: in n-propanol, 293.15 K
measured_attribute: solubility (mole fraction)
Lab note: jot down the number only; don't add units.

In: Form field: reported solubility (mole fraction) of NC(=O)CC[C@H](N)C(=O)O
Out: 0.000156

###

assay_context: in n-pentanol, 308.15 K
measured_attribute: solubility (mole fraction)

In: Form field: reported solubility (mole fraction) of NC(=O)CC[C@H](N)C(=O)O
Out: 0.000335

###

assay_context: in n-butanol, 298.15 K
measured_attribute: solubility (mole fraction)

In: Form field: reported solubility (mole fraction) of NC(=O)CC[C@H](N)C(=O)O
Out: 0.00035

###

assay_context: in ethanol, 283.15 K
measured_attribute: solubility (mole fraction)
Lab note: jot down the number only; don't add units.

In: Form field: reported solubility (mole fraction) of NC(=O)CC[C@H](N)C(=O)O
Out: 0.000273

###

assay_context: in sec-butanol, 283.15 K
measured_attribute: solubility (mole fraction)
Lab note: jot down the number only; don't add units.

In: Form field: reported solubility (mole fraction) of NC(=O)CC[C@H](N)C(=O)O
Out: 5.51e-05

###

assay_context: in n-butanol, 308.15 K
measured_attribute: solubility (mole fraction)
Lab note: jot down the number only; don't add units.

In: Form field: reported solubility (mole fraction) of NC(=O)CC[C@H](N)C(=O)O
Out: 0.000458

###

assay_context: in sec-butanol, 303.15 K
measured_attribute: solubility (mole fraction)
Lab note: jot down the number only; don't add units.

In: Form field: reported solubility (mole fraction) of NC(=O)CC[C@H](N)C(=O)O
Out: 0.000281
